// provenance: patent US20050032873A1

melting point for assorted molecules
Structures can show the parent of a compound that is named as a salt.

# annotated cases, reported melting point shown
CCN(CCCc1c[nH]c2c(F)cc(F)cc12)C1COc2c(C(N)=O)ccc(F)c2C1 (stereo not drawn) (as salt: hydrochloride) | 125 °C (dec.)
CCCN(CCCc1c[nH]c2ccc(F)cc12)C1COc2c(C(N)=O)ccc(F)c2C1 (stereo not drawn) (as salt: hydrochloride) | 123 °C (dec.)

API: the following record is the query input.
# melting point (molecule: CC(C1CC1)N(CCCc1c[nH]c2ccc(F)cc12)C1COc2c(F)ccc(C(N)=O)c2C1 (stereo not drawn) (as salt: hydrochloride) ) is 124 °C (dec.)
